- ASSAYED SYSTEM: T1, human PD-1 (human, UniProt Q15116 25-167)
- T1 construct: The immunogen was PD1/Fc (Leu25-Gln167 fused to human IgG1 Pro100-Lys330); also called huPD-1; hPD-1
- T1 sequence (Q15116 25-167 limits assumed): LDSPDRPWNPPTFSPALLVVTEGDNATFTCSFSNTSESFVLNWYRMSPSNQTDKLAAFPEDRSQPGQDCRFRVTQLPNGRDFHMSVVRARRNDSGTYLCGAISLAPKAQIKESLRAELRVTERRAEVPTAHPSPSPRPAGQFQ
- EXPERIMENTAL DETAILS: SPR, multiple-cycle, crude Fab from E. coli; antigen form not stated
MEASURED METRIC: kon (M⁻¹ s⁻¹)
Provide only the numeric value, understood in M⁻¹ s⁻¹.

Example results:
BINDER	ENDPOINT UNIT	READING
Fab 8 (Fab, V domains shown, Crude Fab from E. coli; also called PD1-BM VL-H49Y) VH: EVQLVESGGGLVQPGGSLRLSCAASGFVFSRYDMAWVRQTPGKGLEWVAFISGGGSNTYYPDTVKGRFTISRDNSKNTLYLQMNSLRAEDTAVYYCISPYYYAMEYWGQGTTVTVSS VL: DIQMTQSPSSISTSVGDRVTITCKASQDVDTAVAWYQQKPGKSPKLLIYWASTRHTGVPSRFSGSGSGTDFTLTLSSVQPEDLADYFCQQYSTFPWTFGGGTKLEIK	M⁻¹ s⁻¹	340000
Fab 7 (Fab, V domains shown, Crude Fab from E. coli; also called PD1-BM VL-S43A) VH: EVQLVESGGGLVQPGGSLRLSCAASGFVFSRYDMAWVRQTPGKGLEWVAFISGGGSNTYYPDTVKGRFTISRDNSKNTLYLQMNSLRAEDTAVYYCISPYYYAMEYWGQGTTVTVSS VL: DIQMTQSPSSISTSVGDRVTITCKASQDVDTAVAWYQQKPGKAPKLLIHWASTRHTGVPSRFSGSGSGTDFTLTLSSVQPEDLADYFCQQYSTFPWTFGGGTKLEIK	M⁻¹ s⁻¹	270000
Fab 12 (Fab, V domains shown, Crude Fab from E. coli; also called PD1-BM VL-D85T) VH: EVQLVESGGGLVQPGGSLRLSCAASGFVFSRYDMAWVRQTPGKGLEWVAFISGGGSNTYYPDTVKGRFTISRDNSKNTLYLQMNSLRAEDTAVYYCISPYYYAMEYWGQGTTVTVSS VL: DIQMTQSPSSISTSVGDRVTITCKASQDVDTAVAWYQQKPGKSPKLLIHWASTRHTGVPSRFSGSGSGTDFTLTLSSVQPEDLATYFCQQYSTFPWTFGGGTKLEIK	M⁻¹ s⁻¹	330000

Look at this binder and give its reported kon. Fab 13 (Fab, V domains shown, Crude Fab from E. coli; also called PD1-BM VL-F87Y) VH: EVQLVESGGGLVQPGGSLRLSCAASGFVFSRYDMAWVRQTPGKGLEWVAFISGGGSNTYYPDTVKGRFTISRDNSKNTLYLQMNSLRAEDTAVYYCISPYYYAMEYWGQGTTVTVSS VL: DIQMTQSPSSISTSVGDRVTITCKASQDVDTAVAWYQQKPGKSPKLLIHWASTRHTGVPSRFSGSGSGTDFTLTLSSVQPEDLADYYCQQYSTFPWTFGGGTKLEIK
350000

Subsequent entry: PD1-BM Ab (Fab) (Fab, V domains shown, Humanized Fab with all 14 back mutations; also called PD1-BM Fab) VH: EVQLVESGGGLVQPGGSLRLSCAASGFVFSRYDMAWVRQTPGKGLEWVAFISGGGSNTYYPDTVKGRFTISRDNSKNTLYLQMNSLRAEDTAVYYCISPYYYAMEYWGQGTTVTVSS VL: DIQMTQSPSSISTSVGDRVTITCKASQDVDTAVAWYQQKPGKSPKLLIHWASTRHTGVPSRFSGSGSGTDFTLTLSSVQPEDLADYFCQQYSTFPWTFGGGTKLEIK
360000

Try this binder too: Fab 6 (Fab, V domains shown, Crude Fab from E. coli; also called PD1-BM VL-T13A) VH: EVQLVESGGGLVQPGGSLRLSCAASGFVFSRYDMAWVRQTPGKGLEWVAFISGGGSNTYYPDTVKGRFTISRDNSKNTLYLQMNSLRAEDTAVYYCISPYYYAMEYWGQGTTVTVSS VL: DIQMTQSPSSISASVGDRVTITCKASQDVDTAVAWYQQKPGKSPKLLIHWASTRHTGVPSRFSGSGSGTDFTLTLSSVQPEDLADYFCQQYSTFPWTFGGGTKLEIK
380000

Please do the same for Fab 11 (Fab, V domains shown, Crude Fab from E. coli; also called PD1-BM VL-L83F) VH: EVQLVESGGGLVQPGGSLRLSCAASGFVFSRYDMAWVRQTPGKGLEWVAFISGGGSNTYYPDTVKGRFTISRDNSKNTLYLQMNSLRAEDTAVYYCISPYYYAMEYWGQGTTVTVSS VL: DIQMTQSPSSISTSVGDRVTITCKASQDVDTAVAWYQQKPGKSPKLLIHWASTRHTGVPSRFSGSGSGTDFTLTLSSVQPEDFADYFCQQYSTFPWTFGGGTKLEIK as well.
300000

Queued: Fab 5 (Fab, V domains shown, Crude Fab from E. coli; also called PD1-BM VL-I11V) VH: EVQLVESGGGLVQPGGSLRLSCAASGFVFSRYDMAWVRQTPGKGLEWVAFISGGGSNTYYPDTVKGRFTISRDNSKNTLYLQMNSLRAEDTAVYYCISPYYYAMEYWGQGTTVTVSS VL: DIQMTQSPSSVSTSVGDRVTITCKASQDVDTAVAWYQQKPGKSPKLLIHWASTRHTGVPSRFSGSGSGTDFTLTLSSVQPEDLADYFCQQYSTFPWTFGGGTKLEIK
370000

Thanks! And Fab 3 (Fab, V domains shown, Crude Fab from E. coli; also called PD1-BM VH-I97A) VH: EVQLVESGGGLVQPGGSLRLSCAASGFVFSRYDMAWVRQTPGKGLEWVAFISGGGSNTYYPDTVKGRFTISRDNSKNTLYLQMNSLRAEDTAVYYCASPYYYAMEYWGQGTTVTVSS VL: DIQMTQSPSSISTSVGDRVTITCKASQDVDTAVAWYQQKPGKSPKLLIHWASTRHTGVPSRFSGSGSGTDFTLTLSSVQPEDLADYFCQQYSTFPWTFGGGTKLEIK ?
320000

Next: Fab 14 (Fab, V domains shown, Crude Fab from E. coli; also called PD1-BM VL-L104V) VH: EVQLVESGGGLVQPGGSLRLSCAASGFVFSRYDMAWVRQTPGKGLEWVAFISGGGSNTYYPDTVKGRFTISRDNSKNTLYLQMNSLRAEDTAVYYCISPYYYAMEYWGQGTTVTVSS VL: DIQMTQSPSSISTSVGDRVTITCKASQDVDTAVAWYQQKPGKSPKLLIHWASTRHTGVPSRFSGSGSGTDFTLTLSSVQPEDLADYFCQQYSTFPWTFGGGTKVEIK
300000
